Numbers sourced from patent US20240059799A1.

- ASSAYED TARGET: T1, recombinant human TL1A (human, UniProt O95150 71-251)
- T1 chain: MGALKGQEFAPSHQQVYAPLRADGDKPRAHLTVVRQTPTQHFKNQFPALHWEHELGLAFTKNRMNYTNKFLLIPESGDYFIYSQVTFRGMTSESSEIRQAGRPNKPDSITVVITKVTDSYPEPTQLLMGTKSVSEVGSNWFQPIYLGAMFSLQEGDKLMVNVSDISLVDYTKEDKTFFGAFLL
- ASSAY METHOD TEXT: cell-based or functional assay
READOUT: TF-1 NF-κB reporter cell bioassay, Bioactivity relative to TL1A-0002 (fold)
Give bare numbers, in fold.

Example entries begin here.
In plain terms, TL1A-0262 (antibody, human IgG1, kappa, V domains shown, human IgG1 effector-function-minimized/kappa) VH: QVQLVQSGAEVKKPGASVKVSCKASGYDYTYYGISWVRQAPGQGLEWMGWISTYNTGTHYAQKLQGRVTMTTDTSTSTAYMELRSLRSDDTAVYYCARESYYGSGAFRGGMDVWGQGTTVTVSS VL: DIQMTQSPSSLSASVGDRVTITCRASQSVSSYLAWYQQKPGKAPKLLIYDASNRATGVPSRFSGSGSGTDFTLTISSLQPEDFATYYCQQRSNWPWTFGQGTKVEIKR has a documented TF-1 NF-κB reporter cell bioassay, Bioactivity relative to TL1A-0002 of 1.3

In plain terms, TL1A-0267 (antibody, human IgG1, kappa, V domains shown, human IgG1 effector-function-minimized/kappa) VH: QVQLVQSGAEVKKPGASVKVSCKASGYDYTYYGISWVRQAPGQGLEWMGWISTYNTNTHYAPSLQGRVTMTTDTSTSTAYMELRSLRSDDTAVYYCARESYYGSGAHRGGMDVWGQGTTVTVSS VL: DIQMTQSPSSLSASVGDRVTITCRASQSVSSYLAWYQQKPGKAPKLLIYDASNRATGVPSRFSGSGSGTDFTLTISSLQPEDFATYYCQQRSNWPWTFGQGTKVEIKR has a documented TF-1 NF-κB reporter cell bioassay, Bioactivity relative to TL1A-0002 of 1.2

In plain terms, TL1A-0260 (antibody, human IgG1, kappa, V domains shown, human IgG1 effector-function-minimized/kappa; also called bio-TL1A-0260 (biotinylated reporter)) VH: QVQLVQSGAEVKKPGASVKVSCKASGYDYTYYGISWVRQAPGQGLEWMGWISTYNTGTHYAPSLQGRVTMTTDTSTSTAYMELRSLRSDDTAVYYCARESYYGSGAFRGGMDVWGQGTTVTVSS VL: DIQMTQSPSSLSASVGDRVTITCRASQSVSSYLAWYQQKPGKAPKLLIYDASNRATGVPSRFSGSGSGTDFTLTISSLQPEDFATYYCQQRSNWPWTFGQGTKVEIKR has a documented TF-1 NF-κB reporter cell bioassay, Bioactivity relative to TL1A-0002 of 0.8

In plain terms, TL1A-0042 (antibody, human IgG1, kappa, V domains shown, parental heavy chain with IGKV1-39*01 light chain; human IgG1 effector-function-minimized/kappa) VH: QVQLVQSGAEVKKPGASVKVSCKASGYDFTYYGISWVRQAPGQGLEWMGWISTYNGNTHYARMLQGRVTMTTDTSTRTAYMELRSLRSDDTAVYYCARENYYGSGAYRGGMDVWGQGTTVTVSS VL: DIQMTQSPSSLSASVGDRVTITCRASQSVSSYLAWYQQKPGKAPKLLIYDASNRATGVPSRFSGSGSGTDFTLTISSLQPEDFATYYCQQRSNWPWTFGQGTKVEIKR has a documented TF-1 NF-κB reporter cell bioassay, Bioactivity relative to TL1A-0002 of 0.7

In plain terms, TL1A-0303 (antibody, human IgG1, kappa, V domains shown, human IgG1 effector-function-minimized/kappa) VH: QVQLVQSGAEVKKPGASVKVSCKASGYDFTYYGIGWVRQAPGQGLEWMGWISTYNTGTHYAPSLQGRVTMTTDTSTSTAYMELRSLRSDDTAVYYCARESYYGSGAHRGGMDVWGQGTTVTVSS VL: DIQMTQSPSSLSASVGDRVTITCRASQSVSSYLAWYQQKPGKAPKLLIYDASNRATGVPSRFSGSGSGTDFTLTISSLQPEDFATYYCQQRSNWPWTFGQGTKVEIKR has a documented TF-1 NF-κB reporter cell bioassay, Bioactivity relative to TL1A-0002 of 1.4

In plain terms, TL1A-0294 (antibody, human IgG1, kappa, V domains shown, human IgG1 effector-function-minimized/kappa) VH: QVQLVQSGAEVKKPGASVKVSCKASGYDFTYYGVSWVRQAPGQGLEWMGWISTYNTNTHYAPSLQGRVTMTTDTSTSTAYMELRSLRSDDTAVYYCARESYYGSGAFRGGMDVWGQGTTVTVSS VL: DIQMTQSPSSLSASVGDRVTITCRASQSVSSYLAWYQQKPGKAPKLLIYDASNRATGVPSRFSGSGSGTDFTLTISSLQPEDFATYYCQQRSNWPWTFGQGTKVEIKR has a documented TF-1 NF-κB reporter cell bioassay, Bioactivity relative to TL1A-0002 of 1.6

In plain terms, TL1A-0261 (antibody, human IgG1, kappa, V domains shown, human IgG1 effector-function-minimized/kappa) VH: QVQLVQSGAEVKKPGASVKVSCKASGYDYTYYGISWVRQAPGQGLEWMGWISTYNTGTHYAPSLQGRVTMTTDTSTSTAYMELRSLRSDDTAVYYCARESYYGSGAHRGGMDVWGQGTTVTVSS VL: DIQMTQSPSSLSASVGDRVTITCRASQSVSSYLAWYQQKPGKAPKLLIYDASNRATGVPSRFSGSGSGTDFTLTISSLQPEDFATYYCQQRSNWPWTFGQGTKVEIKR has a documented TF-1 NF-κB reporter cell bioassay, Bioactivity relative to TL1A-0002 of 0.8

In plain terms, TL1A-0264 (antibody, human IgG1, kappa, V domains shown, human IgG1 effector-function-minimized/kappa) VH: QVQLVQSGAEVKKPGASVKVSCKASGYDYTYYGISWVRQAPGQGLEWMGWISTYNTVTHYAPSLQGRVTMTTDTSTSTAYMELRSLRSDDTAVYYCARESYYGSGAFRGGMDVWGQGTTVTVSS VL: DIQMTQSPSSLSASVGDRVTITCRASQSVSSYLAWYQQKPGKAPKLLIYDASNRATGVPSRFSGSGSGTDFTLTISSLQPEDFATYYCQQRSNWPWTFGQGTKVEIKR has a documented TF-1 NF-κB reporter cell bioassay, Bioactivity relative to TL1A-0002 of 0.9

In plain terms, TL1A-0265 (antibody, human IgG1, kappa, V domains shown, human IgG1 effector-function-minimized/kappa) VH: QVQLVQSGAEVKKPGASVKVSCKASGYDYTYYGISWVRQAPGQGLEWMGWISTYNTVTHYAPSLQGRVTMTTDTSTSTAYMELRSLRSDDTAVYYCARESYYGSGAHRGGMDVWGQGTTVTVSS VL: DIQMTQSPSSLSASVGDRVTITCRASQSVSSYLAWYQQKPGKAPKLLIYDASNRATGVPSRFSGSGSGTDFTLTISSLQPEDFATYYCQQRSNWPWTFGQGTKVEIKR has a documented TF-1 NF-κB reporter cell bioassay, Bioactivity relative to TL1A-0002 of 1.3

Others:
In plain terms, TL1A-0308 (antibody, human IgG1, kappa, V domains shown, human IgG1 effector-function-minimized/kappa) VH: QVQLVQSGAEVKKPGASVKVSCKASGYDFTYYGIGWVRQAPGQGLEWMGWISTYNTNTHYAPSLQGRVTMTTDTSTSTAYMELRSLRSDDTAVYYCARESYYGSGAFRGGMDVWGQGTTVTVSS VL: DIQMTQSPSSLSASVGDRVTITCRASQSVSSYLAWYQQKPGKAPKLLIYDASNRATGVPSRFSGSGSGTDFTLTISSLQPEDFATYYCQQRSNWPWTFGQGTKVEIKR has a documented TF-1 NF-κB reporter cell bioassay, Bioactivity relative to TL1A-0002 of 1.2
